species on record: Rattus norvegicus; test: Open TG-GATES - Regimen: Daily Repeat; type: toxicity, organism-based, Sprague-Dawley; set-up: regimen Daily Repeat, gender Male, age 6 weeks; conditions: in vivo, po, 10 mg/kg, […], tissue Plasma, route gavage, dose level Low, time 7 day
value_type: RALB (g/dL)
Provide only the numeric value, understood in g/dL.

Exam item: Fill in: RALB of CC(C)OC(=O)C(C)(C)Oc1ccc(C(=O)c2ccc(Cl)cc2)cc1 [FENOFIBRATE] is ___
Marked response: 2.7

====

species: Rattus norvegicus; assay: Open TG-GATES - Regimen: Daily Repeat; assay type: toxicity, organism-based, Sprague-Dawley; parameters: regimen Daily Repeat, gender Male, age 6 weeks; details: in vivo, po, 1000 mg/kg, […], tissue Kidney, route gavage, dose level High, time 28 day
value_type: KIDNEY_R (g)
Provide only the numeric value, understood in g.

Recorded KIDNEY_R, per entry:
- CC(C)OC(=O)C(C)(C)Oc1ccc(C(=O)c2ccc(Cl)cc2)cc1 [FENOFIBRATE]: 1.4
- CCOC(=O)CCC(=O)O[C@H]1[C@H](O[C@@H]2[C@@H](C)[C@H](O[C@H]3C[C@@](C)(OC)[C@@H](O)[C@H](C)O3)[C@@H](C)C(=O)O[C@H](CC)[C@@](C)(O)[C@H](O)[C@@H](C)C(=O)[C@H](C)C[C@@]2(C)O)O[C@H](C)C[C@@H]1N(C)C [ERYTHROMYCIN ETHYLSUCCINATE]: 1.4

Exam item: Fill in: KIDNEY_R of NC(N)=Nc1nc(CSCCC(N)=NS(N)(=O)=O)cs1 is ___
Marked response: 1.3

Exam item: Fill in: KIDNEY_R of CCOc1ccc(NC(=O)CC(C)O)cc1 (stereo unspecified) is ___
Marked response: 1.5

Exam item: Fill in: KIDNEY_R of COC1=CC(=O)C[C@@H](C)[C@]12Oc1c(Cl)c(OC)cc(OC)c1C2=O is ___
Marked response: 1.5

Exam item: Fill in: KIDNEY_R of COc1ccc2[nH]c([S+]([O-])Cc3ncc(C)c(OC)c3C)nc2c1 (stereo unspecified) is ___
Marked response: 1.2

====

organism: Rattus norvegicus; experiment: Open TG-GATES - Regimen: Daily Repeat; type: toxicity, organism-based, Sprague-Dawley; design: regimen Daily Repeat, gender Male, age 6 weeks; settings: in vivo, po, 100 mg/kg, […], tissue Blood, route gavage, dose level Low, time 7 day
Quick rule for you: APTT under 20 s gets Y, anything else gets N.

Please review the following examples before continuing.
- CCOC(=O)CCC(=O)O[C@H]1[C@H](O[C@@H]2[C@@H](C)[C@H](O[C@H]3C[C@@](C)(OC)[C@@H](O)[C@H](C)O3)[C@@H](C)C(=O)O[C@H](CC)[C@@](C)(O)[C@H](O)[C@@H](C)C(=O)[C@H](C)C[C@@]2(C)O)O[C@H](C)C[C@@H]1N(C)C [ERYTHROMYCIN ETHYLSUCCINATE]: N
- NC(N)=Nc1nc(CSCCC(N)=NS(N)(=O)=O)cs1 [FAMOTIDINE]: N

# next compound below
Exam item: Hi there! Is APTT for CCOc1ccc(NC(=O)CC(C)O)cc1 (stereo not given) [BUCETIN] below 20 s, do you know?
Marked response: Y
